system: SK-MEL-2 melanoma; assay: NCI tumour cell line growth inhibition, 48 h; in the data active = GI50 below about 0.43 µM; inactive = the rest
Possible outcomes: active, inactive

molecule | class.label
Cc1ccc(/C(=N/Nc2ccc([N+](=O)[O-])cc2)Sc2cc(Cl)c(C)cc2S(N)(=O)=O)cc1 | inactive
O=C1C(=O)c2c(nc3ccc(C(F)(F)F)cn23)-c2ccccc21 | active
Cn1c(COC(=O)NCCc2ccccn2)nc2c(N3CCOCC3)nc(Cl)nc21 | inactive
COc1cc(N2C(=O)[C@H](Cl)C2c2ccc(SC)cc2)cc(OC)c1OC (stereo partly drawn) | active
CC(C)C[C@@H](N)[C@@H](O)C(=O)N[C@H](C(=O)N[C@H](C(=O)N[C@@H](CC(=O)O)C(=O)O)C(C)C)C(C)C | inactive
COc1cc2c(cc1C)NC(=O)/C2=C/c1ccnc2ccccc12 | inactive
O=C1NC(=NCCc2ccc(Cl)cc2)S/C1=C\c1ccc2ncccc2c1 | inactive
Nc1cc2c3c(cccc3c1)C(=O)N(CCN1CCCC1)C2=O | inactive
COc1cc2c(cc1OCCNC(=O)/C=C1\C[C@H]3C=Nc4cc(OCc5ccccc5)c(OC)cc4C(=O)N3C1)N=C[C@@H]1CCCN1C2=O | inactive
Cc1cccc(N2C(=O)/C(=C/C(Cl)=C/c3ccc([N+](=O)[O-])cc3)SC2=S)c1C | inactive
O=C(Nc1n[nH]c2cc(-c3cc(F)ccc3F)ccc12)C1CC1 | inactive
CCCCCCCC/C=C/CCCCCCCC1=NC(C)(C)CN1C(C)(C)CO | inactive
COc1ccc2[nH]c(C(=O)N3CCN(C(=O)OCc4ccc5c(Cl)cc(Cl)c(O)c5n4)CC3)cc2c1 | inactive

====

test system: CAKI-1 renal; assay: NCI tumour cell line growth inhibition, 48 h; in the data active = GI50 below about 0.43 µM; inactive = the rest
Possible outcomes: active, inactive

molecule | tgt | class.label
CCOC(=O)NC(=S)N(CC(=O)c1cc(OC)c(OC)c(OC)c1)c1ccc(Cl)cc1 | CAKI-1 renal | inactive
CSc1nc(Nc2cccc(NC(=O)CCl)c2)c(C#N)c(-c2cccc([N+](=O)[O-])c2)n1 | CAKI-1 renal | inactive
Nc1cc2c3c(cccc3c1)C(=O)N(CCN1CCCC1)C2=O | CAKI-1 renal | inactive
COc1ccc(-n2cc(-c3ccc(OC)c(OC)c3)[nH]c2=O)cc1 | CAKI-1 renal | inactive
Cn1c(COC(=O)NCCc2ccccn2)nc2c(N3CCOCC3)nc(Cl)nc21 | CAKI-1 renal | inactive
CC(C)C[C@@H](N)[C@@H](O)C(=O)N[C@H](C(=O)N[C@H](C(=O)N[C@@H](CC(=O)O)C(=O)O)C(C)C)C(C)C | CAKI-1 renal | inactive
Cn1c(COC(=O)NCCn2ccnc2)nc2c(N3CCOCC3)nc(-c3ccccc3)nc21 | CAKI-1 renal | active
C[C@@]1(F)[C@H](O)[C@@H](CO)O[C@H]1n1ccc(=O)[nH]c1=O | CAKI-1 renal | inactive
CC(C)(C)C[C@H]1N[C@@H](C(=O)NC2CCC(O)CC2)[C@H](c2cccc(Cl)c2F)[C@@]12C(=O)Nc1cc(Cl)ccc12 (stereo not given in full) | CAKI-1 renal | active
COc1cc2c(/C=C3\C(=O)Nc4ccccc43)c[nH]c2cc1C | CAKI-1 renal | active

====

tested on: HCT-116 colon; experiment: NCI tumour cell line growth inhibition, 48 h; in the data active means GI50 below about 0.43 µM; inactive means the rest
Possible outcomes: active, inactive

compound | class.label
O=C1c2cc3c(cc2-c2c1c1cc(F)c(F)cc1c(=O)n2CCCn1ccnc1)OCO3 | active
CCOC(=O)Nc1ccc2nc(-c3cscn3)[nH]c2c1 | inactive
CCC[CH2][Sn-]([CH2]CCC)([CH2]CCC)[O]C(=O)C(C)C | active
COc1ccc(-c2ccc(OC)c(OC)c2OC)cc1 | inactive
Cc1ccc(/C(=N/Nc2ccc([N+](=O)[O-])cc2)Sc2cc(Cl)c(C)cc2S(N)(=O)=O)cc1 | inactive
CC1=NN(c2cccc(Cl)c2)C(=O)/C1=C\c1cn(CC(O)CN2CCCCC2)c2ccccc12 (stereo unspecified) | inactive
C/C(=N/NC(=S)Nc1ccccc1)c1nc2ccc(Cl)cc2[nH]1 | active
O=C1C(=O)c2c(nc3ccc(C(F)(F)F)cn23)-c2ccccc21 | active
COc1cc2c(cc1OCCNC(=O)/C=C1\C[C@H]3C=Nc4cc(OCc5ccccc5)c(OC)cc4C(=O)N3C1)N=C[C@@H]1CCCN1C2=O | inactive
COc1ccc(-n2c(=S)sc3c(Cl)nc(C)nc32)c(OC)c1 | inactive
COC1=CC(c2ccc[nH]2)=N/C1=C\c1[nH]c(C)c(C(=O)CCCCCCCCC(=O)O[C@H]2CC[C@H]3C4CCc5cc(O)ccc5C4CC[C@]23C)c1C (stereo partly specified) | active
COc1ccc(-c2ccc(C3CC(c4ccccc4)=NN3)o2)c([N+](=O)[O-])c1 (stereo unspecified) | inactive
OCc1ccc(N(Cc2ccc(F)cc2)Cc2ccc(F)cc2)cc1Cl | inactive
CC(C)C[C@@H](N)[C@@H](O)C(=O)N[C@H](C(=O)N[C@H](C(=O)N[C@@H](CC(=O)O)C(=O)O)C(C)C)C(C)C | inactive
COc1cc2c(/C=C3\C(=O)Nc4ccccc43)c[nH]c2cc1C | active
COc1cc(C2CC(c3ccc(Nc4nc(NCCO)nc(NCCO)n4)cc3)=NN2c2cc(Cl)cc(Cl)c2)cc(OC)c1OC (stereo unspecified) | inactive

====

test system: HCT-15 colon; experiment: NCI tumour cell line growth inhibition, 48 h
The reader will find reported TGI values listed item by item below.
measured.quantity: TGI (µM)

compound | measured.quantity | result.comparator | measurement
CCOC(=O)NC(=S)N(CC(=O)c1cc(OC)c(OC)c(OC)c1)c1ccc(Cl)cc1 | TGI | > | 100
CC1CCC2C(C)C(=O)OC2C2(C)C(=O)C=CC12 (stereo not given) | TGI | > | 10
CC(=O)NC1C(OCc2ccccc2)OC(CO)C(O)C1OC(C)C(=O)N[C@@H](C)C(=O)N[C@H](CCC(=O)NCCNCCNc1c2ccccc2nc2cccc([N+](=O)[O-])c12)C(N)=O (stereo not given in full) | TGI | = | 1.63
COc1ccc(-n2c(=S)sc3c(Cl)nc(C)nc32)c(OC)c1 | TGI | = | 5.43
[N-]=[N+]=CC(=O)CCC(N)C(=O)O (stereo not given) | TGI | > | 222
O=CCCCCCOCc1ccccc1 | TGI | > | 100
Clc1ccc2c(NCCCCCCNc3ccnc4cc(Cl)ccc34)ccnc2c1 | TGI | = | 8.08
NC(=O)CCC(N=c1c2ccccc2n(O)c2ccccc12)C(=O)O (stereo not given) | TGI | > | 100
COc1ccc2[nH]c(C(=O)N3CCN(C(=O)OCc4ccc5c(Cl)cc(Cl)c(O)c5n4)CC3)cc2c1 | TGI | = | 1.59
CC(C)(C)C[C@H]1N[C@@H](C(=O)NC2CCC(O)CC2)[C@H](c2cccc(Cl)c2F)[C@@]12C(=O)Nc1cc(Cl)ccc12 (stereo not given in full) | TGI | = | 18.2

====

test system: 786-0 renal; experiment: NCI tumour cell line growth inhibition, 48 h
The reader will find reported TGI values listed item by item below.
measured.quantity: TGI

molecule | measurement
O=C1[C@@H]2[C@@H](CN3CN(c4ccccc4)N=C(c4ccccc4)[C@@]23c2ccccc2)C(=O)N1c1ccccc1 | 5.56 µM
Cn1c(=O)c2c(nc3[nH]c(=O)c(Br)cn32)n(C)c1=O | > 100 µM
CCN(CC)C(=S)SC(C(=O)Nc1nnc(-c2ccc(Cl)cc2)o1)c1ccccc1 (stereo unspecified) | 39 µM
C=C(C)C1CC(=O)C(C)=C(O)C1 (stereo unspecified) | > 100 µM
COc1cc(O)ccc1C(=S)SC | > 100 µM
O=C(Nc1ccc(Cl)cc1C(F)(F)F)C(=O)Nn1c(=S)[nH]c2ccccc2c1=O | > 100 µM

====

tested on: M14 melanoma; test: NCI tumour cell line growth inhibition, 48 h

compound | TGI
Cc1cc(Cl)ccc1NC(=O)CCCC(=O)C1C/C(=N/O)CC/C1=N\O (stereo not given) | > 100 µM
NCCO/C=C/C(N)C(=O)O (stereo not given) | > 100 µM
CCOC(=O)c1c(-c2ccc(OC)cc2)ccn1C | > 10 µM
CCCCCCCC(=O)OCC/C=C/C1OC1C1OC(=O)/C=C\C=C\C(=O)N(C(C)=O)C(=O)/C=C(/C)CCC2OC2C1OC(=O)NC(C)=O (stereo not given) | > 25 µM
O=C1NC(=NCCc2ccc(Cl)cc2)S/C1=C\c1ccc2ncccc2c1 | > 25 µM

====

system: KM12 colon; test: NCI tumour cell line growth inhibition, 48 h

molecule | tgt | TGI
COC1(OC)C2(Cl)C3=CCCC=C3C1(Cl)C(Cl)=C2Cl | KM12 colon | > 100 µM
O=C(Nc1n[nH]c2cc(-c3cc(F)ccc3F)ccc12)C1CC1 | KM12 colon | > 25 µM
NCCO/C=C/C(N)C(=O)O (stereo not given) | KM12 colon | > 100 µM
Cc1cc2c(c(C(=O)O)c1C)-c1cccc(Cl)c1C2=O | KM12 colon | > 100 µM
C/C(=C1\N=C(c2ccccc2)OC1=O)c1ccccc1 | KM12 colon | > 100 µM
